Measured values drawn from paper PMC6749418 for this set.

- assayed.target: BRD4 (BD1+BD2) (Homo sapiens, UniProt O60885)
- Construct: BRD4 (BD1+BD2) TR-FRET assay kit from BPS Bioscience
- assay.notes: BRD4 (BD1+BD2) TR-FRET assay, IC50 measurement
- conditions.used: average from three independent experiments
Examples of compounds with documented IC50 follow.
Express it in µM; write the number only.

Worked examples follow.
CC(C)(CNc1ccc2nnc(C(F)(F)F)n2n1)c1cccnc1 ... 68.2
CC(C)(C)c1nnc2ccc(NCC(C)(C)c3cccnc3)nn12 ... 44.6
CC1(C)C(=O)Nc2ccc(C(=O)Nc3cc(Cl)c(O)cc3F)cc21 ... 10.7
CC1CC(=O)N(C)c2ccc(NC(=O)NCc3nc(N(C)C)no3)cc21 (centres unmarked) ... 26.4

Dear colleague, I am looking for the recorded IC50 of the following compound: CCC1Oc2cc(C(C)NC(=O)Cc3c(C)nc4[nH][nH]c(=O)c4c3C)ccc2NC1=O (centres unmarked) 141
